From: PubChem BioAssay AID2060353

- Tested on: 521955-158-R2-J5-PDC spheroids with stroma, growth inhibition;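 also: spheroids exposed to drugs for seven days before readout; 100% = DMSO vehicle control viability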
- procedure.details: Anticancer human tumor 521955-158-R2-J5-PDC patient-derived pancreatic carcinoma cell line growth inhibition [TAK]
- condition.info: second compound 3 µM; first compound 0.316 µM; hits give low values
- Description: Combinatorial screen of targeted agents with TAK-243 and ipatasertib in multi-cell type tumor spheroids […] Compounds. […] If the clinical Cmax for an agent had not been determined, the highest concentration tested was 10 microM. NCI60 Cell Culture. […] The optimal seeding densities for each of the cell lines at each time point assessed were determined prior to performing the concentration response studies. […]
Listed next: entries and their corresponding viability, T/C.
Express the result in % but write the number alone.

>>> value("CC(C)(C)c1nc(-c2cccc(NS(=O)(=O)c3c(F)cccc3F)c2F)c(-c2ccnc(N)n2)s1 + CC(C)NCC(C(=O)N1CCN(c2ncnc3c2C(C)CC3O)CC1)c1ccc(Cl)cc1")
72.2

Ask: Give viability, T/C for this entry on 521955-158-R2-J5-PDC spheroids with stroma, growth inhibition: COc1c(OCCCN2CCOCC2)ccc2c3n(c(=NC(=O)c4cnc(N)nc4)nc12)CCN3 + CC(C)NCC(C(=O)N1CCN(c2ncnc3c2C(C)CC3O)CC1)c1ccc(Cl)cc1
Result: 7.86

Ask: Enter viability, T/C (test system 521955-158-R2-J5-PDC spheroids with stroma, growth inhibition) for CCCS(=O)(=O)Nc1ccc(F)c(C(=O)c2c[nH]c3ncc(-c4ccc(Cl)cc4)cc23)c1F + CC(C)NCC(C(=O)N1CCN(c2ncnc3c2C(C)CC3O)CC1)c1ccc(Cl)cc1;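 also: spheroids exposed to drugs for seven days before readout; 100% = DMSO vehicle control viability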
Result: 100

Ask: Param request: viability, T/C | system 521955-158-R2-J5-PDC spheroids with stroma, growth inhibition | item Cc1nc(NC(=O)N2CCCC2C(N)=O)sc1-c1ccnc(C(C)(C)C(F)(F)F)c1 (centres undefined) + CC(C)NCC(C(=O)N1CCN(c2ncnc3c2C(C)CC3O)CC1)c1ccc(Cl)cc1;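 also: spheroids exposed to drugs for seven days before readout; 100% = DMSO vehicle control viability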
Result: 40.6
